# protocol description: Cmax in rat at 3 mg/kg, po
# Format: ADME, organism-based
# Parameters: dose 3 mg/kg, route oral
# experimental parameters: in vivo
parameter measured: Cmax (ng/mL)

• Cc1cc(SCc2nc(-c3ccc(OC(F)(F)F)cc3)ns2)ccc1OC(C)(C)C(=O)O = 6680

---

# protocol description: AUC in rat at 3 mg/kg
# Assay type: ADME, organism-based
# Set-up: dose 3 mg/kg
# experimental parameters: plasma
parameter measured: AUC

• Cc1cc(SCc2nc(-c3ccc(OC(F)(F)F)cc3)ns2)ccc1OC(C)(C)C(=O)O = 22000 ng·h/mL

---

# study system: Peroxisome proliferator-activated receptor alpha (Homo sapiens)
# protocol description: Agonist activity at PPARalpha expressed in HEK293 cells by measuring Gal4 luciferase reporter activity relative to (S)-2- {2-[1-Ethyl-3-(4-trifluoromethoxyphenyl)ureido] indan-5-ylsulfanyl}-2- methylpropionic acid
# Type: functional, cell-based
List of Activity values.
parameter measured: Activity (%)

* Cc1cc(SCc2nc(-c3ccc(C(C)(C)C)cc3)ns2)ccc1OC(C)(C)C(=O)O | 64
* Cc1cc(SCc2nc(-c3ccc(OC(F)(F)F)cc3)ns2)ccc1OC(C)(C)C(=O)O | 44
* Cc1cc(OCc2nc(-c3ccc(C(F)(F)F)cc3)ns2)ccc1OC(C)(C)C(=O)O | 71
* Cc1cc(SCc2nc(-c3ccc(C(F)(F)F)cc3)ns2)ccc1OCC(=O)O | 42
* Cc1cc(SCc2nsc(-c3ccc(C(F)(F)F)cc3)n2)ccc1OC(C)(C)C(=O)O | 38
* Cc1cc(SCc2nc(-c3ccc(C(F)(F)F)cc3)ns2)ccc1OC(C)(C)C(=O)O | 51
